- assay_protocol: Pharmacokinetics after subcutaneous (SC) administration of angiotensin (1-7) in PBS, plasma LC-MS
- Assay type: in vivo, female Sprague-Dawley rats
- study_conditions: female, Sprague-Dawley, rat, plasma, 3 mg; SC 0.3 mL of 10 mg/mL A(1-7) in PBS; time point 20 min; Average; read-out: Angiotensin (1-7) concentration
experimental_readout: level at 20 min (ng/mL)
Form entry: value (ng/mL) — number only.

I'd like to know its level at 20 min. The compound in question is CC[C@H](C)[C@H](NC(=O)[C@H](Cc1ccc(O)cc1)NC(=O)[C@@H](NC(=O)[C@H](CCCNC(=N)N)NC(=O)[C@@H](N)CC(=O)O)C(C)C)C(=O)N[C@@H](Cc1c[nH]cn1)C(=O)N1CCC[C@H]1C(=O)O
9.22

// data source = patent US20150246093A1
